Sourced from patent US20240099994A1

# protocol-summary: Intrinsic dissolution rate, rotating disk method (USP Chapter 1087)
# Type: physicochemical
# stated-conditions: pH 7.4, 1% polysorbate 20 in medium, 37° C., 50 rpm, average of three samples
Counter-ions that a name gives are not always drawn.
Please provide measured Intrinsic dissolution rate for the entries that follow.
Record the value in mg/min/cm^2, omitting the unit from your answer.

Problem: Output Intrinsic dissolution rate of CNC1(c2ccccc2Cl)CCCCC1=O.CNC1(c2ccccc2Cl)CCCCC1=O.O=C(O)c1cc2ccccc2c(Cc2c(O)c(C(=O)O)cc3ccccc23)c1O [R,S-ketamine pamoate salt (Amorphous, ratio 2:1)] [R, S-ketamine pamoate salt]
Result: 0.024

Problem: Output Intrinsic dissolution rate of CN[C@@]1(c2ccccc2Cl)CCCCC1=O [R-ketamine pamoate salt (Amorphous, ratio 2:1)]
Result: 0.021

Problem: Output Intrinsic dissolution rate of CNC1(c2ccccc2Cl)CCCCC1=O (stereo not drawn) [R,S-ketamine HCl, R, S-ketamine hydrochloride, reference compound]
Result: 1.740

Problem: Output Intrinsic dissolution rate of CN[C@]1(c2ccccc2Cl)CCCCC1=O [S-ketamine pamoate salt (Amorphous, ratio 2:1)]
Result: 0.026

Problem: Output Intrinsic dissolution rate of CN[C@@]1(c2ccccc2Cl)CCCCC1=O [R-ketamine pamoate salt (Crystal, ratio 2:1)]
Result: 0.025

Problem: Output Intrinsic dissolution rate of CNC1(c2ccccc2Cl)CCCCC1=O.Cl (stereo not drawn) [R-ketamine HCl, R-ketamine hydrochloride, reference compound]
Result: 2.356

Problem: Output Intrinsic dissolution rate of CN[C@]1(c2ccccc2Cl)CCCCC1=O.Cl [S-ketamine HCl, S-ketamine hydrochloride, reference compound]
Result: 2.248

Problem: Output Intrinsic dissolution rate of CNC1(c2ccccc2Cl)CCCCC1=O.CNC1(c2ccccc2Cl)CCCCC1=O.O=C(O)c1cc2ccccc2c(Cc2c(O)c(C(=O)O)cc3ccccc23)c1O [R,S-ketamine pamoate salt (Crystal, ratio 2:1)] [R, S-ketamine pamoate salt]
Result: 0.012

Problem: Output Intrinsic dissolution rate of CN[C@]1(c2ccccc2Cl)CCCCC1=O [S-ketamine pamoate salt (Crystal, ratio 2:1)]
Result: 0.027
